Biological target: FAAH (Rattus norvegicus, UniProt P97612)
Construct: Frozen brains (without cerebellum) from Wistar rats were used; from tissue; host or cells: Wistar rat brain (without cerebellum), washed membrane pellets
Sequence (P97612 1-579): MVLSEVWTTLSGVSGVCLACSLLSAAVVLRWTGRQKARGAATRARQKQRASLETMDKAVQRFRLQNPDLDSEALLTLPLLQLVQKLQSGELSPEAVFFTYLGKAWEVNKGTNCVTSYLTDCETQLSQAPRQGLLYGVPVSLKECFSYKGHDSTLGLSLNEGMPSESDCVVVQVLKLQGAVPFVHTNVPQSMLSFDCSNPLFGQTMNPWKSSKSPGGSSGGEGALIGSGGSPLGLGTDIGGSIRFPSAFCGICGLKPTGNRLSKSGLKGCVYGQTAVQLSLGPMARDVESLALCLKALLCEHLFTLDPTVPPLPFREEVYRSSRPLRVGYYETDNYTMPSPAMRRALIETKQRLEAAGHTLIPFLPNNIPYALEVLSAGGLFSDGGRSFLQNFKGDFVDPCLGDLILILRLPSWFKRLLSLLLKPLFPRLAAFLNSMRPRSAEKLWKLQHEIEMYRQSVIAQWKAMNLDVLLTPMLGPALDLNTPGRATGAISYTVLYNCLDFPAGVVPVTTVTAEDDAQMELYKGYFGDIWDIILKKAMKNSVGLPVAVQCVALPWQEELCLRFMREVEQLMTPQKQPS
Experiment: In vitro FAAH activity in rat brain membranes, 3H-AEA substrate, % of control
Assay type: biochemical, Wistar rats
Details: 100 nM test compound, low value = strong inhibitor
MEASUREMENT_KIND: In Vitro FAAH activity, 100 nM

STRUCTURE_NOTATION	MEASUREMENT_KIND	RECORDED_VALUE
COc1ccc(OCC2CCN(C(=O)n3nnc4ccccc43)CC2)cc1	In Vitro FAAH activity, 100 nM	0 % of control
CCCCCCCCCCCCNC(=O)n1nnc2ccccc21	In Vitro FAAH activity, 100 nM	0 % of control
O=C(N1CCN(c2ccc(OCc3ccccc3)cc2)CC1)n1nnc2ccccc21	In Vitro FAAH activity, 100 nM	0 % of control
CN(C(=O)n1cnc(-c2cccc(-c3ccccc3)c2)c1)C1CCCCC1	In Vitro FAAH activity, 100 nM	4 % of control
CN(C(=O)n1nnc2ccccc21)C1CCCC1	In Vitro FAAH activity, 100 nM	0.2 % of control

Task: Given the molecule `C[C@@H]1CN(C(=O)n2nnc3ccccc32)C[C@H](C)O1` , write its reported In Vitro FAAH activity, 100 nM.
Result: 64.2 % of control

Task: Given the molecule `CN(C(=O)n1nnc2ccccc21)[C@H]1CC[C@H](OCc2ccccc2)CC1` , write its reported In Vitro FAAH activity, 100 nM.
Result: 1.3 % of control

Task: Given the molecule `CN(C(=O)n1cnc(-c2cccc(-c3cc(Cl)ccc3F)c2)c1)C1CCCCC1` , write its reported In Vitro FAAH activity, 100 nM.
Result: 33.7 % of control

Task: Given the molecule `CC(C)(C)N(Cc1ccccc1)C(=O)n1cnc(-c2ccccc2)c1` , write its reported In Vitro FAAH activity, 100 nM.
Result: 91.7 % of control
